# Target desc: T1, human S100P (human, UniProt P25815 1-95)
# T1 sequence (looked up): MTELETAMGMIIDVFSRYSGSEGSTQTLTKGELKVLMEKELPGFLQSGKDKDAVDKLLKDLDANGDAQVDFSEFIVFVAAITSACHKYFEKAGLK
# Test summary: ITC
pKd: −log10 of the molar value.
Measured metric: pKd

According to the records, this binder Ac-TRTKADWNKILS-NH2 [TRTKM5 (Ac-TRTKADWNKILS-NH2)] displays pKd of 4.25

Sample Ac-TRTKIDWNKALS-NH2 [TRTKM10 (Ac-TRTKIDWNKALS-NH2)] ; pKd observed: 4.37

[A] Ac-ARTKIDWNKILS-NH2 [TRTKM1 (Ac-ARTKIDWNKILS-NH2)]
[B] Ac-TRTKIAWNKILS-NH2 [TRTKM6 (Ac-TRTKIAWNKILS-NH2)]
Q. Problem: Given the entries A and B , determine which has the lower reported pKd. State the label of the item chosen.
A. B

[I] Ac-TRTKIDWNKIAS-NH2 [TRTKM11 (Ac-TRTKIDWNKIAS-NH2)]
[II] Ac-TRTKIDWNAILS-NH2 [TRTKM9 (Ac-TRTKIDWNAILS-NH2)]
Q. Given I and given II , which shows the smaller recorded pKd? Which one? Tell me its label.
A. I
(I: 4.50, II: 5.15)
